# Test system: CAKI-1 renal
# assay-overview: NCI-60 one-dose screen, 48 h (100 = growth as untreated, 0 = no growth, -100 = all killed)
# measurement-conditions: 10 µM unless noted
Compounds without any hit were thinned out: in the full panel of roughly 83,000, 20% have a hit.
recorded-metric: growth (%)
Numbers only, in %.

// below: answered compounds
COc1ccc(NC(=O)CSc2nc3ccc(Cl)cc3c(=O)n2-c2ccccc2C(F)(F)F)c(OC)c1OC ... 78.4
Clc1ccc([I+]c2ccc(Cl)cc2Cl)c(Cl)c1 ... 27
CCCCCCCC/C=C\CCCCCCCCOc1ccccc1CCOP(=O)(O)OCC[N+](C)(C)C ... 26.9
O=C(c1c[nH]c2ccccc12)C(Sc1nc2ccccc2c(=O)[nH]1)c1ccccc1 (stereo unspecified) ... 108

I have 3 compounds here; please give me growth for each one.
1. CSc1ccccc1C#C/C=C\C#Cc1ccccc1N1CCCC1=O
2. N#CC1=C(N)OC2=C(C(=O)CCC2)C1c1ccco1 (stereo unspecified)
3. C[N+](C)(C)c1ccc(CC2c3ccccc3-c3ccccc32)cc1

Result string:
70.2
93
86.8

====

# Test system: A498 renal
# assay-overview: NCI-60 one-dose screen, 48 h
# measurement-conditions: 10 µM unless noted
Compounds without any hit were thinned out: in the full panel of roughly 83,000, 20% have a hit. The source made the active and inactive calls. Rule for the calls: active = growth percent below 10; inactive = the rest.
// classify into TRUE (active), FALSE (inactive)

Nc1c(C(=O)Nc2ccccc2)sc2nc3c(cc12)CCC3 ... FALSE

Query string: Please let me know the test result on file for CCN1C(=O)N(CC)C2Nn3c(s/c(=C\c4cccc(F)c4)c3=O)=NC21 (stereo not drawn) .
Result string: FALSE

Query string: For this molecule, state the assay outcome: `NC(=O)c1ccc2c(c1)OCO2`
Result string: FALSE

Query string: Any idea what this test logged for `CCC1=C[C@@H]2CN(C1)Cc1c([nH]c3ccccc13)[C@@](C(=O)OC)(c1cc3c(cc1OC)N(C=O)[C@H]1[C@@](O)(C(=O)OC)[C@H](OC(C)=O)[C@]4(CC)[C@@H]5C[C@@H]5CN5CC[C@]31[C@@H]54)C2` ?
Result string: TRUE

Query string: Recorded call for Cc1ccc(C2=NN(c3ccc(S(=O)(=O)NC(=O)NCc4ccccc4)cc3)C(c3ccc(N(C)C)cc3)C2)c(C)c1 (stereo not drawn) ?
Result string: FALSE

Query string: Short answer needed: outcome of this test for `CCCOC(=O)C1(O)CCCC1` ?
Result string: FALSE

Query string: GET /call?item= `NC(N)=NC(N)=Nc1ccccc1-c1ccccc1` returns the recorded outcome of this test.
Result string: FALSE

====

# Tested on: A498 renal
# assay-overview: NCI-60 one-dose screen, 48 h
# measurement-conditions: 10 µM unless noted
This is part of a sample that, as a whole, favours compounds with a hit. Of some 83,000 tested, about 20% had one in any assay. Active and inactive are the calls of the source. How the source made its calls: active means growth percent below 10; inactive means the rest.
Hi! Could you answer with just one of these? yes = active, no = inactive

Use these answered entries as a reference point.
COc1cc(C(=O)N2CCN(C(=O)c3ccco3)CC2)c(N)cc1OCc1ccccc1 ... no
CC(=O)N1Cc2ccccc2C(C)Cc2cc(Cl)ccc21 (stereo not given) ... no
O=C(c1ccccc1)C(Cl)C(Cl)c1ccccc1 (stereo not given) ... no
COc1cc(/C=C/C(=O)c2ccc(NC(=O)CN3CCN(c4cc5c(cc4F)c(=O)c(C(=O)O)cn5C4CC4)CC3)cc2)cc(OC)c1OC ... yes
CC(Cc1nnc(SCC(=O)Nc2ccc(I)cc2)n1N)c1ccccc1 (stereo not given) ... no
Cc1cnc(NC(=O)C(Cc2ccccc2)NC(=O)c2ccccc2)s1 (stereo not given) ... no
NCCSC(c1ccccc1)(c1ccccc1)c1ccccc1 ... no
CC(=O)Nc1ccc(S(=O)(=O)N2C(=O)CCC2C(=O)Nc2ccc(Br)cc2)cc1 (stereo not given) ... no

Query string: Just curious, what result did `Nc1c(C(=O)Nc2cccc(C(F)(F)F)c2)sc2nc3c(cc12)CCCCCC3` get here?
Result string: yes

====

# System: UACC-62 melanoma
# assay-overview: NCI-60 one-dose screen, 48 h (100 = growth as untreated, 0 = no growth, -100 = all killed)
# measurement-conditions: 10 µM unless noted
Compounds without any hit were thinned out: in the full panel of roughly 83,000, 20% have a hit.
Can you tell me growth for the items I'm about to list?
Answers are plain numbers, in %.

COc1cccc(/C=C/c2c(C(=O)O)cccc2[N+](=O)[O-])c1OC ... 109
COC(=O)CC/C(C)=N\Nc1ccc([N+](=O)[O-])cc1 ... 26.6
O=C(CNc1c(Cl)cccc1Cl)Nc1ccc(-c2nc3ccccc3s2)cc1 ... 35.1

Field: growth. Fill in for each record below.
1. O=S(=O)(NCCCNc1cc(-c2cn(-c3ccccc3)nc2-c2cccc(O)c2)ccn1)c1cccc2ccccc12
2. C=C1C(=O)O[C@H]2[C@H]1CC/C(Cn1cc(-c3ccsc3)nn1)=C\CC[C@@]1(C)O[C@@H]21

Result string:
1. 34.5
2. -55.7

====

# Test system: HT29 colon
# assay-overview: NCI-60 one-dose screen, 48 h
# measurement-conditions: 10 µM unless noted
The panel holds about 83,000 compounds, 20% with a hit somewhere; the sample as a whole holds those more often. Active and inactive are the calls of the source. Rule for the calls: active = growth percent below 10; inactive = the rest.
Returns: one label drawn from 1.0 = active, 0.0 = inactive

CCn1cc(C(=O)O)c(=O)c2cc(F)c(N3CCN(S(=O)(=O)c4cccc5ccccc45)CC3)cc21 ... 1.0
COc1cc2nc(SCc3cc(OC)c(OC)c(OC)c3)n(Cc3ccccc3)c(=O)c2cc1OC ... 0.0
COC(=O)CC/C(C)=N\Nc1ccc([N+](=O)[O-])cc1 ... 0.0
Cc1ccc(C2=NN(c3ccc(S(=O)(=O)NC(=O)NCc4ccccc4)cc3)C(c3ccc(N(C)C)cc3)C2)c(C)c1 (stereo not given) ... 0.0
COc1cc(/C=C/C(=O)c2ccccc2O)ccc1OCCCOc1cc2c(cc1OC)C(=O)N1CCC[C@H]1C=N2 ... 1.0

Query string: I'd appreciate the recorded outcome for CCC(c1cccc(Br)c1)C(C(=O)O)c1ccc(OC)cc1 (stereo not given) from this test.
Result string: 0.0

Query string: Hi, sorry to bother you, what did the test record for `O=c1oc2cc(OS(=O)(=O)c3ccc(F)cc3)ccc2c2c1CCCCC2` ?
Result string: 0.0

Query string: Hello, I am checking results. What call was entered for `O=C(Nc1ccc(Cl)cc1)c1cc(-c2ccc(F)cc2)c2sc(=O)[nH]c2n1` ?
Result string: 0.0

Query string: Call for entry `COc1ccc(C(=O)N2CCN(C(=O)c3cc(OC)c(OC)c(OC)c3)CC2)cc1OCCCCOc1cc2c(cc1OC)C(=O)N1CCC[C@H]1C=N2` :
Result string: 0.0

Query string: Status in this test for `COc1ccc(-c2nc3sccn3c2-c2ccnc(NCCCNS(=O)(=O)c3ccc(F)cc3)n2)cc1` ?
Result string: 0.0

====

# System: HCC-2998 colon
# assay-overview: NCI-60 one-dose screen, 48 h (100 = growth as untreated, 0 = no growth, -100 = all killed)
# measurement-conditions: 10 µM unless noted
Compounds without any hit were thinned out: in the full panel of roughly 83,000, 20% have a hit.
Provide the reported growth of each item.
Give bare numbers, in %.

CCN1C(=O)/C(=c2\sc3n(c2=O)C2C(NN=3)N(CC)C(=S)N2CC)c2ccccc21 (stereo not given) ... 104
O=C1CCCCN1CCCCC#Cc1ccccc1C#Cc1ccc([N+](=O)[O-])cc1 ... 67.2
COc1cccc(/C=C/c2c(C(=O)O)cccc2[N+](=O)[O-])c1OC ... 104
O=S(=O)(NCCCNc1nccc(-c2c(-c3ccc(F)c(O)c3)nc3sccn23)n1)c1ccc(Cl)cc1 ... 112
CN1CCN(c2ccc3cc(-c4nc5ccccc5[nH]4)c(=O)oc3c2)CC1 ... 114

Hey, quick one: what's growth for each of these?
1. CCC1CCc2nc3sc(C(=O)Nc4ccccc4F)c(N)c3cc2C1 (stereo not given)
2. COc1cc(Cn2c(SCC(=O)Nc3ccc(Cl)cc3)nc3ccccc3c2=O)cc(OC)c1OC

Result string:
[91.6, 93.2]

# return growth for each item in the list
1. Oc1ccc(Cl)cc1-c1cc(-c2ccc(Cl)cc2)n[nH]1
2. Cc1ccc(Cn2c(-c3nonc3N)nc3ccccc32)cc1
3. CCC(=O)Oc1ccc2c(c1)CC[C@@H]1[C@@H]2CC[C@]2(C)C[C@H](OC(=O)CC)C[C@@H]12
4. C#CCN1C(=O)/C(=c2\sc3n(c2=O)NC2C(N=3)N(CC)C(=O)N2CC)c2ccccc21 (stereo not given)
5. COc1ccc(/C=C/c2cc(N3CCOCC3)c3cc(F)c(F)cc3n2)cc1OC
6. Cc1ccc2c(c1)C(=O)C(c1c(-c3[nH]c(=O)c4ccc(C)cc4c3O)c(O)c3ccccc3c1O)=NC2=O
7. O=S=Nc1ccc([N+](=O)[O-])cc1
8. O=C(CNC(=O)c1cccc2ccccc12)Nc1ccccc1Oc1ccccc1

Result string:
1. 22
2. 75.1
3. 85
4. 100
5. 29
6. 62
7. 93.5
8. 21

Hi there! I need growth for each item below, if you can.
1. COc1cc(NC(=O)c2cc3ccccc3nc2Nc2ccc(F)cc2)cc(OC)c1OC
2. COc1ccc(/C(=N\O)c2cc(OC)c(OC)c(OC)c2)c(OC)c1N
3. CCCCC[C@@H]1Cc2cc(O)c(C(=O)O)c3c2[C@H](C[C@@]2(CCCO2)O3)O1

Result string:
65.9
35.7
95.9

Your task in this section: give growth for each listed record.
1. CCCC(C(=O)OCC)C(C)OC(=O)OCC (stereo not given)
2. COc1cc(CNC(=O)CCSc2nc3ccccc3c(=O)n2Cc2cc(OC)c(OC)c(OC)c2)cc(OC)c1OC

Result string:
103
86

Origin of the recorded values: PubChem BioAssay (NCI)
